Test system: S. pneum ATCC 49619
Assay: MIC, agar incorporation method (NCCLS agar dilution method)
Format: cell-based, streptococcus pneumoniae
Conditions: 18-24 hours, 35±2° C., 5% CO2
quantity: Minimum Inhibitory Concentrations, S. pneum ATCC 49619 (µg/mL)
Supply the numeric figure in µg/mL, leaving out any unit text.

What value of measured Minimum Inhibitory Concentrations, S. pneum ATCC 49619 is listed for CCC1OC(=O)C(C)C(OC(=O)Cc2ccc(F)cc2)C(C)C(OC2OC(C)CC(N(C)Cc3ccc([N+](=O)[O-])cc3)C2O)C(C)(OC)CC(C)C(=O)C(C)C(O)C1(C)O (stereo not shown) ?
0.5

What value of measured Minimum Inhibitory Concentrations, S. pneum ATCC 49619 is listed for CC[C@H]1OC(=O)[C@H](C)[C@@H](O[C@H]2C[C@@](C)(OC)[C@@H](O)[C@H](C)O2)[C@H](C)[C@@H](O[C@@H]2O[C@H](C)C[C@H](N(C)C)[C@H]2O)[C@](C)(O)C[C@@H](C)C(=O)[C@H](C)[C@@H](O)[C@]1(C)O [E, erythromycin A, reference compound] ?
0.008

What value of measured Minimum Inhibitory Concentrations, S. pneum ATCC 49619 is listed for C#CCN(C)C1CC(C)OC(OC2C(C)C(OC(=O)Cc3ccc(F)cc3)C(C)C(=O)OC(CC)C(C)(O)C(O)C(C)C(=O)C(C)CC2(C)OC)C1O (stereo not shown) ?
1

What value of measured Minimum Inhibitory Concentrations, S. pneum ATCC 49619 is listed for CCC1OC(=O)C(C)C(OC(=O)Cc2ccc3ccccc3c2)C(C)C(OC2OC(C)CC(N(C)Cc3ccccc3)C2O)C(C)(OC)CC(C)C(=O)C(C)C(O)C1(C)O (stereo not shown) ?
2

What value of measured Minimum Inhibitory Concentrations, S. pneum ATCC 49619 is listed for CCC1OC(=O)C(C)C(OC(=O)Cc2ccccc2F)C(C)C(OC2OC(C)CC(N(C)Cc3ccc(F)cc3)C2O)C(C)(OC)CC(C)C(=O)C(C)C(O)C1(C)O (stereo not shown) ?
2
